Test system: OV-90
Assay: ATP depletion cytotoxicity assay 48 hr
Format: cell-based, human
Settings: Homo sapiens, OV-90, 48 h, ATP depletion, 48 hrs, read-out: IC50 1-4 (independent replicates)
pIC50: −log10 of the molar value.
metric.name: pIC50

[[record]]
compound = "O=C(O)C(F)(F)C(F)(F)C(F)(F)C(F)(F)C(F)(F)C(F)(F)C(F)(F)F [CXR1002]"
assay_result = 3.19


---

Assay: Phase I study CXR1002-001: plasma pharmacokinetics (LC-MS/MS)
Format: in vivo, human
Details: human, plasma, oral, 100 mg, Patient 007 Dose 100 mg; 0 hr
metric.name: concentration at 0 hr (nM)

[[record]]
molecule = "O=C(O)C(F)(F)C(F)(F)C(F)(F)C(F)(F)C(F)(F)C(F)(F)C(F)(F)F [CXR1002]"
assay_result = 0


---

Experiment: Phase I study CXR1002-001: plasma pharmacokinetics (LC-MS/MS)
Format: in vivo, human
Details: human, plasma, oral, 100 mg, Patient 006 Dose 100 mg; 528 hr (Day 23); read-out: Concentration
metric.name: concentration at 528 hr (µM)

[[record]]
smiles_repr = "O=C(O)C(F)(F)C(F)(F)C(F)(F)C(F)(F)C(F)(F)C(F)(F)C(F)(F)F"
unit_descriptor = "µM"
assay_result = 97


---

Assay: Phase I study CXR1002-001: plasma pharmacokinetics (LC-MS/MS)
Format: in vivo, human
Conditions: human, plasma, oral, 100 mg, Patient 007 Dose 100 mg; 3 hr; read-out: Concentration
Source text: PK samples, PD (fasting) samples, blood glucose, and blood triglyceride samples, were taken over a 6-week period. Dose limiting toxicity (DLT) will be based on the toxicity assessments over the first 3-week period of the repeat dosing schedule. […]
metric.name: concentration at 3 hr (µM)

[[record]]
smiles_repr = "O=C(O)C(F)(F)C(F)(F)C(F)(F)C(F)(F)C(F)(F)C(F)(F)C(F)(F)F"
assay_result = 28.6


---

Test: Phase I study CXR1002-001: plasma pharmacokinetics (LC-MS/MS)
Assay type: in vivo, human
Settings: human, plasma, oral, 100 mg, Patient 007 Dose 100 mg; 504 hr (Day 22); read-out: Concentration
metric.name: concentration at 504 hr (µM)

[[record]]
molecule = "O=C(O)C(F)(F)C(F)(F)C(F)(F)C(F)(F)C(F)(F)C(F)(F)C(F)(F)F [CXR1002]"
metric_name = "concentration at 504 hr"
unit_descriptor = "µM"
assay_result = 39.7


---

Assay: Phase I study CXR1002-001: plasma pharmacokinetics (LC-MS/MS)
Format: in vivo, human
Details: human, plasma, oral, 200 mg, Patient 009 Dose 200 mg; 3 hr; read-out: Concentration
metric.name: concentration at 3 h (µM)

[[record]]
smiles_repr = "O=C(O)C(F)(F)C(F)(F)C(F)(F)C(F)(F)C(F)(F)C(F)(F)C(F)(F)F"
assay_result = 61.2


---

Assay: Phase I study CXR1002-001: plasma pharmacokinetics (LC-MS/MS)
Assay type: in vivo, human
Conditions: human, plasma, oral, 50 mg, Patient 001 Dose 50 mg; Day 179
metric.name: concentration at 179 day (µM)

[[record]]
smiles_repr = "O=C(O)C(F)(F)C(F)(F)C(F)(F)C(F)(F)C(F)(F)C(F)(F)C(F)(F)F"
metric_name = "concentration at 179 day"
assay_result = 250

